Each recorded value in this set is attributed to patent US20220024882A1.

Test: Whole-body activity measurements, tumor-bearing mice
Type: in vivo, athymic nude Balb/c mice
Conditions: 4 h p.i., 30 MBq, 1 nmol i.v., activity right after injection = 100%
Source text: In vivo experiments were approved by the local veterinarian department and conducted in accordance with the Swiss law of animal protection. Mice were obtained from Charles River Laboratories, Sulzfeld, Germany, at the age of 5-6 weeks. […]
Fulfilled means recorded whole-body retention of radioactivity is 30% or above; Not fulfilled means it is below 30%.

State whether the measured whole-body retention of radioactivity reaches 30%, counting equality as reaching it, for CC(C)Cc1ccc(C(C)C(=O)NC(CCN)C(=O)NCCCCC(NC(=O)CN2CCN(CC(=O)O)CCN(CC(=O)O)CCN(CC(=O)O)CC2)C(=O)NCC2CCC(C(=O)NC(Cc3ccc4ccccc4c3)C(=O)NCCCCC(NC(=O)NC(CCC(=O)O)C(=O)O)C(=O)O)CC2)cc1 (centres unmarked) [^177Lu-Ibu-DAB-PSMA, metal not drawn]
Not fulfilled

State whether the measured whole-body retention of radioactivity reaches 30%, counting equality as reaching it, for CC(C)Cc1ccc(C(C)C(=O)NC(CC(=O)NCCCCC(NC(=O)CN2CCN(CC(=O)O)CCN(CC(=O)O)CCN(CC(=O)O)CC2)C(=O)NCC2CCC(C(=O)NC(Cc3ccc4ccccc4c3)C(=O)NCCCCC(NC(=O)NC(CCC(=O)O)C(=O)O)C(=O)O)CC2)C(=O)O)cc1 (centres unmarked) [^177Lu-Ibu-Dβ-PSMA, metal not drawn]
Fulfilled

State whether the measured whole-body retention of radioactivity reaches 30%, counting equality as reaching it, for CC(C)Cc1ccc(C(C)C(=O)NC(CC(N)=O)C(=O)NCCCCC(NC(=O)CN2CCN(CC(=O)O)CCN(CC(=O)O)CCN(CC(=O)O)CC2)C(=O)NCC2CCC(C(=O)NC(Cc3ccc4ccccc4c3)C(=O)NCCCCC(NC(=O)NC(CCC(=O)O)C(=O)O)C(=O)O)CC2)cc1 (centres unmarked) [^177Lu-Ibu-N-PSMA, metal not drawn]
Not fulfilled

State whether the measured whole-body retention of radioactivity reaches 30%, counting equality as reaching it, for CC(C)Cc1ccc(C(C)C(=O)NC(CC(=O)O)C(=O)NCCCCC(NC(=O)CN2CCN(CC(=O)O)CCN(CC(=O)O)CCN(CC(=O)O)CC2)C(=O)NCC2CCC(C(=O)NC(Cc3ccc4ccccc4c3)C(=O)NCCCCC(NC(=O)NC(CCC(=O)O)C(=O)O)C(=O)O)CC2)cc1 (centres unmarked) [^177Lu-Ibu-Dα-PSMA, metal not drawn]
Not fulfilled

State whether the measured whole-body retention of radioactivity reaches 30%, counting equality as reaching it, for CC(C)Cc1ccc(C(C)C(=O)NCCCCC(NC(=O)CN2CCN(CC(=O)O)CCN(CC(=O)O)CCN(CC(=O)O)CC2)C(=O)NCC2CCC(C(=O)NC(Cc3ccc4ccccc4c3)C(=O)NCCCCC(NC(=O)NC(CCC(=O)O)C(=O)O)C(=O)O)CC2)cc1 (centres unmarked) [^177Lu-Ibu-PSMA, metal not drawn]
Fulfilled
